The following compounds were reported with Ki values on Serine/threonine-protein kinase PLK1 (Homo sapiens, UniProt P53350) in different studies.

Request: Which measured Ki belongs to `Cc1cccc(C)c1NC(=O)N1Cc2c(NC(=O)C3([Si](C)(C)C)CCC3)n[nH]c2C1(C)C` , tested on Serine/threonine-protein kinase PLK1 (Homo sapiens, UniProt P53350)?
Response: ≥ 5000 nM

Request: Here is the next compound: `C[C@H](O)[C@@H](N)C(=O)N1CCC([C@@H](C)Nc2ncc(C#N)c(-c3c[nH]c4ncc(C(F)(F)F)cc34)n2)CC1`
Response: < 3 nM

Request: Here is the next compound: CC(Nc1ncc(C#N)c(-c2c[nH]c3ncc(C(F)(F)F)cc23)n1)c1ccc(N2CCC(O)(C3CC3)CC2)nc1 (stereo not drawn)
Response: 3 to 40 nM

Request: Here is the next compound: `COc1cc(C(=O)N2CCOCC2)ccc1Nc1ncc2c(n1)N(C1CCCC1)CC(C)(C)C(=O)N2C`
Response: < 10 nM

Request: Here is the next compound: `COc1cc(C(=O)NCC#N)ccc1Nc1ncc2c(n1)N(C1CCCC1)CC(C)(C)C(=O)N2C`
Response: < 10 nM

Request: Here is the next compound: CC(Nc1ncc(C#N)c(-c2c[nH]c3ncc(C(F)(F)F)cc23)n1)c1ccc(N2CCNCC2)cc1 (stereo not drawn)
Response: < 3 nM

Request: Here is the next compound: `COc1cc(C(=O)NC2CCCC2)ccc1Nc1ncc2c(n1)N(C1CCCC1)C[C@@H](C)C(=O)N2C`
Response: < 10 nM

Request: Here is the next compound: `CC(C)(Nc1ncc(C#N)c(-c2c[nH]c3ncccc23)n1)C(=O)NCC(F)(F)F`
Response: > 40 nM

Request: Here is the next compound: `COc1cc(C(=O)N[C@@H]2CCc3ccccc32)ccc1Nc1ncc2c(n1)N(C1CCCC1)CC(C)(C)C(=O)N2C`
Response: < 10 nM

Request: Here is the next compound: `CC(C)Nc1ncc(C#N)c(-c2c[nH]c3ncc(C(F)(F)F)cc23)n1`
Response: 3 to 40 nM

Request: Here is the next compound: CC(Nc1ncc(C#N)c(-c2c[nH]c3ncc(C(F)(F)F)cc23)n1)c1ccc(N2CCN(C(=O)OC(C)(C)C)CC2)cc1 (stereo not drawn)
Response: 3 to 40 nM

Request: Here is the next compound: `CN1C(=O)C(C)(C)CN(C2CCCC2)c2nc(Nc3cccc4cn[nH]c34)ncc21`
Response: 10 to 100 nM

Request: Here is the next compound: `CN1C(=O)C(C)(C)CN(C2CCCC2)c2nc(Nc3cccc(NC(=O)N4CCCCC4)c3)ncc21`
Response: 10 to 100 nM

Request: Here is the next compound: `COc1cc(C(=O)Nc2ccncn2)ccc1Nc1ncc2c(n1)N(C1CCCC1)CC(C)(C)C(=O)N2C`
Response: < 10 nM

Request: Here is the next compound: `CCN1c2nc(NCc3cnn(Cc4ccc(F)cc4)c3)ncc2N(C)C(=O)[C@@H]1C`
Response: > 4000 nM

###

The following compounds were reported with Ki values on Serine/threonine-protein kinase PLK1 (Homo sapiens, UniProt P53350) in different studies.

Request: Which measured Ki belongs to `COc1cc(CNc2ncc(C#N)c(-c3c[nH]c4ncc(C(F)(F)F)cc34)n2)ccc1O` , tested on Serine/threonine-protein kinase PLK1 (Homo sapiens, UniProt P53350)?
Response: > 40 nM

Request: Here is the next compound: COCCC(=O)N1CCC(C(C)Nc2ncc(C#N)c(-c3c[nH]c4ncc(C(F)(F)F)cc34)n2)CC1 (stereo not drawn)
Response: < 3 nM

Request: Here is the next compound: `Cc1ccccc1NC(=O)N1Cc2c(NC(=O)C3([Si](C)(C)C)CCC3)n[nH]c2C1(C)C`
Response: ≥ 5000 nM

Request: Here is the next compound: `Cc1coc2c(NC(=O)N3Cc4c(NC(=O)C5([Si](C)(C)C)CCC5)n[nH]c4C3(C)C)c(F)ccc12`
Response: ≥ 5000 nM

Request: Here is the next compound: `C[C@@H](Nc1ncc(C#N)c(-c2c[nH]c3ncc(C(F)(F)F)cc23)n1)c1ccc(N2CCC(N(C)C)CC2)nc1`
Response: 3 to 40 nM

Request: Here is the next compound: CC(Nc1ncc(C#N)c(-c2c[nH]c3ncc(C(F)(F)F)cc23)n1)c1ccc(N2CCNCC2)nc1 (stereo not drawn)
Response: < 3 nM

Request: Here is the next compound: `COc1cc(C(=O)NC2CN(CC3CC3)C2)ccc1Nc1ncc2c(n1)N(C1CCCC1)CC(C)(C)C(=O)N2C`
Response: < 10 nM

Request: Here is the next compound: `C[C@@H](Nc1ncc(C#N)c(-c2c[nH]c3ncc(C(F)(F)F)cc23)n1)c1ccc(Br)cc1`
Response: > 40 nM

Request: Here is the next compound: `CC(F)(F)c1ccccc1NC(=O)N1Cc2c(NC(=O)C3([Si](C)(C)C)CCC3)n[nH]c2C1(C)C`
Response: ≥ 5000 nM

Request: Here is the next compound: `COCCNC(=O)c1cccc(Nc2ncc3c(n2)N(C2CCCC2)CC(C)(C)C(=O)N3C)c1`
Response: 10 to 100 nM

Request: Here is the next compound: `Cc1ccc(C)c(CNc2ncc(C#N)c(-c3c[nH]c4ncc(C(F)(F)F)cc34)n2)c1`
Response: 3 to 40 nM

Request: Here is the next compound: N#Cc1cnc(NC2CC2c2ccccc2)nc1-c1c[nH]c2ncc(C(F)(F)F)cc12 (stereo not drawn)
Response: > 40 nM

Request: Here is the next compound: `CN1C(=O)C(C)(C)CN(C2CCCC2)c2nc(Nc3cccc(C(=O)NC4CNC4)c3)ncc21`
Response: 10 to 100 nM

Request: Here is the next compound: C[C@@H](Nc1ncc(C#N)c(-c2c[nH]c3ncc(C(F)(F)F)cc23)n1)C1CCN(C(=O)C(O)CN)CC1 (stereo partly drawn)
Response: < 3 nM

Request: Here is the next compound: `CN1C(=O)C(C)(C)CN(C2CCCC2)c2nc(Nc3ccc(CN4CCOCC4)cc3)ncc21`
Response: 10 to 100 nM

Request: Here is the next compound: N#Cc1cnc(NC2CCc3ccccc32)nc1-c1c[nH]c2ncc(C(F)(F)F)cc12 (stereo not drawn)
Response: > 40 nM

Request: Here is the next compound: `C[C@@H](Nc1ncc(C#N)c(-c2c[nH]c3ncc(C(F)(F)F)cc23)n1)c1ccc(CO)cc1`
Response: < 3 nM

Request: Here is the next compound: `C[C@@H](Nc1ncc(C#N)c(-c2c[nH]c3ncc(C(F)(F)F)cc23)n1)c1ccc(S(N)(=O)=O)cc1`
Response: < 3 nM

Request: Here is the next compound: CCCC(C)Sc1ncc(C#N)c(-c2c[nH]c3ncc(C(F)(F)F)cc23)n1 (stereo not drawn)
Response: > 40 nM

Request: Here is the next compound: `C[C@@H](Nc1ncc(C#N)c(-c2c[nH]c3ncc(C(F)(F)F)cc23)n1)c1ccc(N2CCN(C)CC2)c(F)c1`
Response: < 3 nM

Request: Here is the next compound: CC(=O)Nc1ccc(C(C)Nc2ncc(C#N)c(-c3c[nH]c4ncc(C(F)(F)F)cc34)n2)cc1 (stereo not drawn)
Response: < 3 nM

Request: Here is the next compound: `COc1cc(C(=O)NC[C@@H]2CCCC[C@H]2O)ccc1Nc1ncc2c(n1)N(C1CCCC1)CC(C)(C)C(=O)N2C`
Response: < 10 nM

Request: Here is the next compound: `CC(=O)Nc1cc(Nc2ncc3c(n2)N(C2CCCC2)CC(C)(C)C(=O)N3C)ccc1C`
Response: 10 to 100 nM

Request: Here is the next compound: COc1cc(C(=O)NC2CCN(C)CC2)ccc1Nc1ncc2c(n1)N(C1CCCC1)CC(C)C(=O)N2C (stereo not drawn)
Response: < 10 nM

Request: Here is the next compound: `COc1cc(C(=O)N[C@@H]2CCC[C@H]2O)ccc1Nc1ncc2c(n1)N(C1CCCC1)CC(C)(C)C(=O)N2C`
Response: < 10 nM

Request: Here is the next compound: `N#Cc1cnc(Sc2ccccc2Br)nc1-c1c[nH]c2ncc(C(F)(F)F)cc12`
Response: > 40 nM

Request: Here is the next compound: `COc1ccc(NC(C)=O)cc1Nc1ncc2c(n1)N(C1CCCC1)CC(C)(C)C(=O)N2C`
Response: < 10 nM

Request: Here is the next compound: `COc1cc(C(=O)N[C@@H]2CCOC2)ccc1Nc1ncc2c(n1)N(C1CCCC1)CC(C)(C)C(=O)N2C`
Response: < 10 nM

Request: Here is the next compound: `N#Cc1cnc(NCC2CCOCC2)nc1-c1c[nH]c2ncc(C(F)(F)F)cc12`
Response: 3 to 40 nM

Request: Here is the next compound: `COc1cc(C(=O)NC(C)(C)C)ccc1Nc1ncc2c(n1)N(C1CCCC1)CC(C)(C)C(=O)N2C`
Response: < 10 nM
